Tested on: U-2932
ASSAY COMMENT: growth inhibition by drug plus 177Lu-lilotomab satetraxetan (1 - RLU/untreated control) (fraction); higher = stronger inhibition
CONDITION SUMMARY: 1000 nM; time (day): 3; 177Lu-lilotomab satetraxetan 1 ug/ml
Where a name gives a salt, the structure may show the parent alone.
Class boundaries, taken from values of growth inhibition by drug plus 177Lu-lilotomab satetraxetan, are as follows: lower range = under 0.05, middle range = from 0.05 up to 0.3, upper range = 0.3 and over

Which bin should I file OC[C@H]1O[C@@H](n2cnc3c2N=CNC[C@H]3O)C[C@@H]1O [Pentostatin] under?
middle range

What do you have for CC(=O)O[C@]1(C(C)=O)CC[C@H]2[C@@H]3C=C(C)C4=CC(=O)CC[C@]4(C)[C@H]3CC[C@@]21C [Megestrol Acetate] ?
lower range

What do you have for CN(C)CCOc1ccc(/C(=C(/CCCl)c2ccccc2)c2ccccc2)cc1 [Toremifene Citrate (Fareston, Acapodene)] ?
middle range

====

Tested on: RIVA
ASSAY COMMENT: growth inhibition by drug alone (1 - RLU/untreated control) (fraction); higher = stronger inhibition
CONDITION SUMMARY: 100 nM; time (day): 5; 177Lu-lilotomab satetraxetan 0 ug/ml
Collected growth inhibition by drug alone values appear next to each entry.

Example entries begin here.
Oc1cccc(-c2nc(N3CCOCC3)c3oc4ncccc4c3n2)c1 : 0.667
O=C1NC(=O)/C(=C\c2cccc(C(F)(F)F)c2)S1 : -0.514
CC(C)n1nc(-c2ccc3oc(N)nc3c2)c2c(N)ncnc21 : 0.699

Param item = C[C@]1(c2nc3c(C(N)=O)cccc3[nH]2)CCCN1 ; retrieve measured growth inhibition by drug alone.
-0.247

What do you have for CCCCCCCc1ccc(CCc2cccc(O)c2C(=O)O)cc1 ?
-0.186

====

Collected growth inhibition by drug plus 177Lu-lilotomab satetraxetan values appear next to each entry.
Test system: U-2932
ASSAY COMMENT: growth inhibition by drug plus 177Lu-lilotomab satetraxetan (1 - RLU/untreated control) (fraction); higher = stronger inhibition
CONDITION SUMMARY: 1000 nM; time (day): 6; 177Lu-lilotomab satetraxetan 1 ug/ml
Kindly provide the number alone.

Param item = CS(=O)(=O)CCNCc1ccc(-c2ccc3ncnc(Nc4ccc(OCc5cccc(F)c5)c(Cl)c4)c3c2)o1 [Lapatinib Ditosylate (Tykerb)] ; retrieve measured growth inhibition by drug plus 177Lu-lilotomab satetraxetan.
0.277

====

System: U-2932
ASSAY COMMENT: growth inhibition by drug alone (1 - RLU/untreated control) (fraction); higher = stronger inhibition
CONDITION SUMMARY: 1000 nM; time (day): 6; 177Lu-lilotomab satetraxetan 0 ug/ml
// F strictly below 0.1 in growth inhibition by drug alone; T otherwise

Is growth inhibition by drug alone for Cc1ccc(NC(=O)c2cccc(C(C)(C)C#N)c2)cc1Nc1ccc2ncn(C)c(=O)c2c1 at or above 0.1?
T

What do you have for O=C(O)CCc1ccc(NCc2cccc(Oc3ccccc3)c2)cc1 ?
F

What do you have for COc1cc2ncnc(Nc3cccc(Br)c3)c2cc1OC ?
F

====

Test system: U-2932
ASSAY COMMENT: growth inhibition by drug alone (1 - RLU/untreated control) (fraction); higher = stronger inhibition
CONDITION SUMMARY: 10 nM; time (day): 4; 177Lu-lilotomab satetraxetan 0 ug/ml
// no strictly below 0.05 in growth inhibition by drug alone; yes otherwise

Cc1cccc(-c2nn3c(c2-c2ccnc4ccc(C(N)=O)cc24)CCC3)n1 : no
COc1cc2ncnc(-n3nc(-c4ccccn4)nc3N)c2cc1OC : yes
CCNC(=O)c1noc(-c2cc(C(C)C)c(O)cc2O)c1-c1ccc(CN2CCOCC2)cc1 : yes
O=C(CCc1ccc(O)cc1)c1c(O)cc(O)cc1O [Phloretin (Dihydronaringenin)] : yes

Is growth inhibition by drug alone for C[C@@H](O[C@H]1OCCN(Cc2n[nH]c(=O)[nH]2)[C@H]1c1ccc(F)cc1)c1cc(C(F)(F)F)cc(C(F)(F)F)c1 [Aprepitant (MK-0869)] at or above 0.05?
no

What do you have for CN[C@@H](C)C(=O)N[C@H]1CN(C(=O)CC(C)C)CC[C@H]2CC[C@@H](C(=O)NC(c3ccccc3)c3ccccc3)N2C1=O ?
no

What do you have for CCOc1cc2ncc(C#N)c(Nc3ccc(OCc4ccccn4)c(Cl)c3)c2cc1NC(=O)/C=C/CN(C)C ?
no

====

System: U-2932
ASSAY COMMENT: growth inhibition by drug alone (1 - RLU/untreated control) (fraction); higher = stronger inhibition
CONDITION SUMMARY: 10 nM; time (day): 6; 177Lu-lilotomab satetraxetan 0 ug/ml
// NOT MET strictly below -0.02 in growth inhibition by drug alone; MET otherwise

Some solved entries appear below for comparison.
CN(C)CCCN=c1c2ccccc2n(C)c2[nH]c(=O)n(C)c(=O)c12 : MET
CCc1ccc(CCOc2ccc(CC3SC(=O)NC3=O)cc2)nc1 (stereo unspecified) : NOT MET
CC(C)C[C@H](NC(=O)[C@H](Cc1ccccc1)NC(=O)c1cnccn1)B(O)O : MET
CS(=O)(=O)N1CCc2c(-c3cnc(N)nc3)nc(N3CCOCC3)nc21 : MET

Is growth inhibition by drug alone for CS(=O)(=O)c1ccc(C(=O)Nc2ccc(Cl)c(-c3ccccn3)c2)c(Cl)c1 at or above -0.02?
NOT MET

What do you have for Cc1csc(-c2nnc(Nc3ccc(Oc4ncccc4-c4ccnc(N)n4)cc3)c3ccccc23)c1 ?
MET

What do you have for Cc1cccc(-c2nn3c(c2-c2ccnc4ccc(C(N)=O)cc24)CCC3)n1 ?
MET

What do you have for CN1CCN(c2cccc(Nc3nc4c(-c5ccc(S(C)(=O)=O)cc5)cccn4n3)c2)CC1 ?
MET

What do you have for O=C(/C=C/c1cccc(S(=O)(=O)Nc2ccccc2)c1)NO ?
MET

What do you have for Nc1nc2[nH]cc(CCc3ccc(C(=O)N[C@@H](CCC(=O)O)C(=O)O)cc3)c2c(=O)[nH]1 ?
NOT MET

What do you have for Cc1cnc(Nc2ccc(OCCN3CCCC3)cc2)nc1Nc1cccc(S(=O)(=O)NC(C)(C)C)c1 ?
NOT MET

====

Tested on: RIVA
ASSAY COMMENT: growth inhibition by drug alone (1 - RLU/untreated control) (fraction); higher = stronger inhibition
CONDITION SUMMARY: 10 nM; time (day): 4; 177Lu-lilotomab satetraxetan 0 ug/ml
Class boundaries, taken from values of growth inhibition by drug alone, are as follows: c1: < -0.1; c2: ≥ -0.1 and < 0.05; c3: ≥ 0.05

Some solved entries appear below for comparison.
Nc1nc(Cl)nc2c1ncn2[C@@H]1O[C@H](CO)[C@@H](O)[C@@H]1F [Clofarabine] : c2
Nc1ccc(-c2ccc3ncc4ccc(=O)n(-c5cccc(C(F)(F)F)c5)c4c3c2)cn1 [Torin 2] : c3
Cc1oc(S(=O)(=O)N2CCCCC2)cc1NC(=O)Nc1ccccc1 : c3
C[C@]12CCC(=O)C=C1CC[C@@H]1[C@@H]2[C@@H](O)C[C@@]2(C)[C@H]1CC[C@]2(O)C(=O)CO [Hydrocortisone (Cortisol)] : c2

Which bin should I file O=C(O)Cc1cccc(OCCCN(Cc2cccc(C(F)(F)F)c2Cl)CC(c2ccccc2)c2ccccc2)c1 under?
c3

What do you have for Cc1nc(Nc2ncc(C(=O)Nc3c(C)cccc3Cl)s2)cc(N2CCN(CCO)CC2)n1 ?
c3

====

System: RIVA
ASSAY COMMENT: growth inhibition by drug alone (1 - RLU/untreated control) (fraction); higher = stronger inhibition
CONDITION SUMMARY: 100 nM; time (day): 3; 177Lu-lilotomab satetraxetan 0 ug/ml
// 0 (no) strictly below -0.07 in growth inhibition by drug alone; 1 (yes) otherwise

Some solved entries appear below for comparison.
COc1nc(C)cnc1NS(=O)(=O)c1cccnc1-c1ccc(-c2nnco2)cc1 [Zibotentan (ZD4054)] : 1 (yes)
CO[C@H]1C[C@@H]2CC[C@@H](C)[C@@](O)(O2)C(=O)C(=O)N2CCCC[C@H]2C(=O)O[C@H]([C@H](C)C[C@@H]2CC[C@@H](OCCO)[C@H](OC)C2)CC(=O)[C@H](C)/C=C(\C)[C@@H](O)[C@@H](OC)C(=O)[C@H](C)C[C@H](C)/C=C/C=C/C=C/1C [Everolimus (RAD001)] : 1 (yes)
OCCn1cc(-c2cnc3nnn(Cc4ccc5ncccc5c4)c3n2)cn1 : 0 (no)
C=CC[C@@H]1/C=C(\C)C[C@H](C)C[C@H](OC)[C@H]2O[C@@](O)(C(=O)C(=O)N3CCCC[C@H]3C(=O)O[C@H](/C(C)=C/[C@@H]3CC[C@@H](O)[C@H](OC)C3)[C@H](C)[C@@H](O)CC1=O)[C@H](C)C[C@@H]2OC [FK-506 (Tacrolimus)] : 1 (yes)

Is growth inhibition by drug alone for CC(c1cc2ccccc2s1)N(O)C(N)=O (stereo not given) [Zileuton] at or above -0.07?
0 (no)

What do you have for COc1cc(C(=O)NC(=S)Nc2cccc(NC(=O)c3ccccc3)c2)cc(OC)c1OC ?
1 (yes)

What do you have for O=C(/C=C/C#Cc1cccc(NS(=O)(=O)c2ccccc2)c1)NO [Oxamflatin] ?
1 (yes)

What do you have for CCCCCCCc1ccc(CCc2cccc(O)c2C(=O)O)cc1 ?
0 (no)

What do you have for O=C(Nc1ccccc1-c1cn2c(CN3CCNCC3)csc2n1)c1cnc2ccccc2n1 ?
1 (yes)
